# Tested on: THP-1
# EXPERIMENT_NOTES: CD54 surface expression induction over DMSO control (% over DMSO); higher = stronger dendritic cell activation
# CONDITION_LABEL: exposure time: 24 h
OBSERVED_PROPERTY: CD54 surface expression induction

COMPOUND	OBSERVED_PROPERTY	QUANTITATIVE_RESULT
N=C(N)NN=C(/C=C/c1ccc([N+](=O)[O-])o1)/C=C/c1ccc([N+](=O)[O-])o1 [Nitrovin] (10 µM)	CD54 surface expression induction	76.1
C[n+]1cc2c3c(ccc2c2ccc4cc5c(cc4c21)OCO5)OCO3 [Sanguinarine] (10 µM)	CD54 surface expression induction	36
Clc1ccccc1-c1nc(-c2ccncc2)no1 [Pifexole] (100 µM)	CD54 surface expression induction	-5.59
CC1COc2ccccc2N1C(=O)C(Cl)Cl (configuration not stated) [Benoxacor] (10 µM)	CD54 surface expression induction	13.4
c1ccc(SCCSc2ccccc2)cc1 [1,2-Bis(phenylthio)ethane] (100 µM)	CD54 surface expression induction	-6.44
CN(C)c1ccc(SC#N)cc1 [4-(Dimethylamino)phenylthiocyanate] (10 µM)	CD54 surface expression induction	-9.74
CO[C@@H]1[C@H](OC(=O)/C=C/C=C/C=C/C=C/C(=O)O)CC[C@]2(CO2)[C@H]1[C@@]1(C)O[C@@H]1CC=C(C)C [Fumagillin] (100 µM)	CD54 surface expression induction	4.2
CCCCc1ccc2[nH]c(NC(=O)OC)nc2c1 [Parbendazole*] (200 µM)	CD54 surface expression induction	262
Oc1c(I)cc(Cl)c2cccnc12 [Clioquinol] (100 µM)	CD54 surface expression induction	141
CC(C)CC(NC(=O)OCC1c2ccccc2-c2ccccc21)C(=O)O (stereo in doubt) [N-(9-Fluorenylmethoxycarbonyl)-L-leucine] (100 µM)	CD54 surface expression induction	-11.5
C=C(C)C(=O)Nc1ccc(Cl)c(Cl)c1 [Chloranocryl] (100 µM)	CD54 surface expression induction	0.25
CCCCCCCC/C=C\CCCCCCCC(=O)N(C)CC(=O)O [Oleyl sarcosine] (100 µM)	CD54 surface expression induction	6.04
COc1ccc(C(=O)c2ccc(C)cc2)c(O)c1 [Mexenone] (300 µM)	CD54 surface expression induction	-5.78
Oc1c(Br)cc(Br)c2cccnc12 [Broxyquinoline] (100 µM)	CD54 surface expression induction	49.3
COc1cc(C(C)(C)C)c(O)c(C(C)(C)C)c1 [2,6-Di-tert-butyl-4-methoxyphenol] (200 µM)	CD54 surface expression induction	14.5
O=C(O)c1cccnc1Nc1cccc(C(F)(F)F)c1 [Niflumic acid] (100 µM)	CD54 surface expression induction	-11.5
CCOc1ccc2nc3cc(N)ccc3c(N)c2c1 [Ethacridine lactate monohydrate] (200 µM)	CD54 surface expression induction	-29.7

* * *

# Tested on: THP-1
# EXPERIMENT_NOTES: CD86 surface expression induction over DMSO control (% over DMSO); higher = stronger dendritic cell activation
# CONDITION_LABEL: exposure time: 24 h
Where a name gives a salt, the structure may show the parent alone.
Each entry below carries its reported CD86 surface expression induction.

COMPOUND	CD86 surface expression induction
CCOc1ccc2nc3cc(N)ccc3c(N)c2c1 [Ethacridine lactate monohydrate] (200 µM)	42.2
Oc1c(I)cc(Cl)c2cccnc12 [Clioquinol] (100 µM)	64.9
CC1=C(/C=C/C(C)=C/C=C/C(C)=C/C=O)C(C)(C)CCC1 [13-cis-Retinal (Vitamin A aldehyde)] (100 µM)	64.3
O=C(Oc1ccccc1)c1cccc(C(=O)Oc2ccccc2)c1 [Diphenyl isophthalate] (200 µM)	1.84
c1ccc(-c2ccccn2)nc1 [2,2'-Dipyridyl] (200 µM)	0.3
O=C(O)c1cn(C2CC2)c2cc(N3CCNCC3)c(F)cc2c1=O [Ciprofloxacin] (100 µM)	-5.55
CC(=O)Oc1ccc(C2(c3ccc(OC(C)=O)cc3)C(=O)Nc3ccccc32)cc1 [Oxyphenisatin acetate] (100 µM)	6.01
Clc1ccc(C(Cn2ccnc2)OCc2ccc(Sc3ccccc3)cc2)c(Cl)c1 (stereo not drawn) [Fenticonazole nitrate] (100 µM)	102
N=C1C=CC(=C(c2ccc(N)cc2)c2ccc(N)cc2)C=C1 [C.I. Basic Red 9 monohydrochloride] (10 µM)	-3.84
Clc1ccc2c(c1)Nc1ccccc1S2 [2-Chlorophenothiazine] (100 µM)	-11
O=C(NS(=O)(=O)/C=C/c1ccccc1)c1ccc(F)cc1Cl (200 µM)	-3.08
CCc1oc2ccccc2c1C(=O)c1cc(I)c(O)c(I)c1 [Benziodarone] (100 µM)	7.99
Cc1ccc(O)c2ncccc12 [Tiliquinol] (10 µM)	43.2
C=C(C)C(=O)Nc1ccc(Cl)c(Cl)c1 [Chloranocryl] (100 µM)	-22.2
COc1ccc(-c2cc(=S)ss2)cc1 [Anethole trithione] (100 µM)	-4.63
COc1ccc(C(=O)c2ccc(C)cc2)c(O)c1 [Mexenone] (300 µM)	18.8
CCOC(=O)CCC(=O)OCC [Diethyl butanedioate] (200 µM)	-4.2
COc1ccc2cc(CCC(C)=O)ccc2c1 [Nabumetone] (100 µM)	-3.23
